- system: Human recombinant renin (Homo sapiens, UniProt P00797)
- Sequence (P00797 67-406): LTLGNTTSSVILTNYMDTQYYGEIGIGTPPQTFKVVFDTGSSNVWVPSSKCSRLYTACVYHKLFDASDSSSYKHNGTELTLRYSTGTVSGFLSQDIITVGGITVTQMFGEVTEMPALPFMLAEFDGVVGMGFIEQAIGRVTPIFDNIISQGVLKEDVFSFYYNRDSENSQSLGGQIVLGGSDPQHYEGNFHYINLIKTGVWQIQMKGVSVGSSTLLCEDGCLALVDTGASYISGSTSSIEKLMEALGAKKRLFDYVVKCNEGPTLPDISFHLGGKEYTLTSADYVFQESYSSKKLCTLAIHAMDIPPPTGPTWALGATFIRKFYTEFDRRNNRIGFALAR
- assay.notes: Inhibition of human recombinant renin (QFRET, buffer)
- recorded.conditions: buffer: 50 mM MOPS pH 7.4, 100 mM NaCl, 0.002% Tween 20; 37° C., 3 hours

{"columns": ["molecule", "system", "IC50, nM"],
 "data": [
  ["CC(=O)NCCc1c(F)cccc1-c1onc([C@H]2CNCC[C@]2(O)c2ccc(F)c(F)c2)c1Br", "Human recombinant renin (Homo sapiens, UniProt P00797)", 0.16],
  ["CC(=O)NCCc1ccccc1-c1ccc([C@H]2CNCC[C@@H]2c2ccn(C)c(=O)c2)c(Cl)c1 [Structure 59]", "Human recombinant renin (Homo sapiens, UniProt P00797)", 2.1],
  ["Cc1cc(-c2ccccc2CCNC(=O)c2ccn(C)n2)ccc1[C@H]1CNCC[C@@H]1c1cc(F)cc(F)c1 (racemic)", "Human recombinant renin (Homo sapiens, UniProt P00797)", 26],
  ["Cc1ccc(Cl)c(-c2noc([C@H]3CNCC[C@]3(O)c3ccc(F)c(F)c3)c2Br)c1F", "Human recombinant renin (Homo sapiens, UniProt P00797)", 4.9]
]}
